biological target: HLA-DPB1*0501 (human (endogenous in HO301)); assay: radioligand binding
value_kind: other

Before answering, review these 5 worked examples.
> print(dat)
                     binder  value.kind  value.reported
1   EKKYFAATVFEPLAA [… Q9V]       other             3.4
2   EKKYFAATKFEPLAA [… Q9K]       other            0.95
3  EKKYFAATQFRPLAA [… E11R]       other               1
4  EKKYFAATQFVPLAA [… E11V]       other               2
5   EKKYFYATQFEPLAA [… A6Y]       other             2.1

a = EKKYFAATQFNPLAA [… E11N]
b = EKKYFDATQFEPLAA [… A6D]
c = EKKYFAATQFQPLAA [… E11Q]
Query: Which order do these items take when sorted by rising other? List them. Give your ranking as a list of the labels in the requested order.
Response: b, a, c
(b: 0.13, a: 0.36, c: 1)

a = EKKYFKATQFEPLAA [… A6K]
b = EKKYFAAYQFEPLAA [… T8Y]
c = EKKYFAAWQFEPLAA [… T8W]
Query: List by increasing other. The labels, placed in the requested order, form the answer.
Response: c, b, a
(c: 0.13, b: 0.2, a: 1.8)

Where do these numbers come from? They come from paper PMC2935290.
